Just for reference, ChEMBL document CHEMBL1145394 is where these values come from.

# experiment-description: Half life in rat at 5 mg/kg, iv
# Format: ADME, organism-based
# Design: dose 5 mg/kg, route intravenous
# condition-set: in vivo
readout-name: half-life (h)
API: value field is a number in h; no unit string.

Worked examples follow.
C/C(=C1/C(=O)Nc2ccc(NC(N)=O)cc21)c1cc(CNC(=O)c2cccnc2)c[nH]1    2
C/C(=C1/C(=O)Nc2ccc(NC(N)=O)cc21)c1cc(CNC(=O)C2CCNCC2)c[nH]1    2.4
CN(C)CCNC(=O)c1cccc(-c2c[nH]c(/C=C3\C(=O)Nc4ccc(NC(N)=O)cc43)c2)c1    3.7
C/C(=C1/C(=O)Nc2ccc(NC(N)=O)cc21)c1ccc[nH]1    0.4

Challenge: Any idea what half-life was measured for NC(=O)Nc1ccc2c(c1)/C(=C/c1cc(-c3cccnc3)c[nH]1)C(=O)N2 ?
Response given: 1.6
